- Study target: human Adenosine A1 receptor (Homo sapiens (Human))
- Sequence (P30542 whole entry): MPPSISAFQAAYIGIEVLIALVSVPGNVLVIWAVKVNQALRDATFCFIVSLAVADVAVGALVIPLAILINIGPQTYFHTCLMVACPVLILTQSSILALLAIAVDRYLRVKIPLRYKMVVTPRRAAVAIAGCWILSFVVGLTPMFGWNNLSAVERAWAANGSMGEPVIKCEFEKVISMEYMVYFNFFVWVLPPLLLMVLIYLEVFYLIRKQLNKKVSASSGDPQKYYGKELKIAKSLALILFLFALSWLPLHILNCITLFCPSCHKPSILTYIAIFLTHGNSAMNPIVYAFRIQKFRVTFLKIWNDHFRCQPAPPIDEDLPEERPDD
- Assay summary: Adenosine receptor TR-FRET binding assay (A1)
- Condition details: inhibition of binding of 100 nM CA200645, CHO cell membranes
pKi: −log10 of the molar value.
Given measured pKi, output y if it is greater than or equal to 7 and n if not.

Sample answers from the record:
Smiles text: Cc1cc(-c2sc(NC(=O)N3CCS(=N)(=O)CC3)nc2-c2cccc(C#N)c2)cc(C(F)F)n1
Study target: human Adenosine A1 receptor (Homo sapiens (Human))
Group label: y
--
Smiles text: Cc1cc(-c2sc(NC(=O)N3CC4(COC4)C3)nc2-c2cccc(C#N)c2)cc(C2CC2)n1
Study target: human Adenosine A1 receptor (Homo sapiens (Human))
Group label: y

Exercise: pKi >= 7 for "Cc1cc(-c2sc(NC(=O)N3CC[C@@H](C(=O)O)C3)nc2-c2cccc(C#N)c2)cc(C)n1" ?
Solution: n

* * *

Ki: recorded values
- Study target: human Adenosine A2b receptor (Homo sapiens (Human))
- Sequence (P29275 whole entry): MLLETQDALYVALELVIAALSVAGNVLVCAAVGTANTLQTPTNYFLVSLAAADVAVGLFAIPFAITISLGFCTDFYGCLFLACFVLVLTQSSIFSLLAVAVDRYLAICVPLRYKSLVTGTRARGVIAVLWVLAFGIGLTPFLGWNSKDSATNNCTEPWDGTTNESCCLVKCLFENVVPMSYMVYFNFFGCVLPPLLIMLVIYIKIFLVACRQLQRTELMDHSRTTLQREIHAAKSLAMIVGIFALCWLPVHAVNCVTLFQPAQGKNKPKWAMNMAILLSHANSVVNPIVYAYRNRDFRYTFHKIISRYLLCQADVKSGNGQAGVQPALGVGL
- Assay summary: Adenosine receptor TR-FRET binding assay (A2b)
- Condition details: TR-FRET, inhibition of binding of 30 nM CA200645, CHO cell membranes
Express your answer in nM, writing the number without its unit.

Record excerpt, results attached:
Compound: Cc1cc(-c2sc(NC(=O)N3CCC(C#N)(CO)CC3)nc2-c2cccc(C#N)c2)cc(C)n1 [Example 4.23]
Study target: human Adenosine A2b receptor (Homo sapiens (Human))
Quantity name: Ki
Test result: 0.7

Compound: Cc1cc(-c2sc(NC(=O)N3CC4(CCNC4=O)C3)nc2-c2cccc(C#N)c2)cc(C)n1 [Example 6.59]
Study target: human Adenosine A2b receptor (Homo sapiens (Human))
Quantity name: Ki
Test result: 2.2

Compound: Cc1cc(-c2sc(NC(=O)N3CCN[C@H](CO)C3)nc2-c2cccc(C#N)c2)cc(Cl)n1 [Example 5.2]
Study target: human Adenosine A2b receptor (Homo sapiens (Human))
Quantity name: Ki
Test result: 0.9

Compound: Cc1cc(-c2sc(NC(=O)N3CCC(C)(O)CC3)nc2-c2cccc(C#N)c2)cc(C)n1 [Example 6.96]
Study target: human Adenosine A2b receptor (Homo sapiens (Human))
Quantity name: Ki
Test result: 1.8

Compound: Cc1cc(-c2sc(NC(=O)N3C[C@@H]4C[C@H]3CN4C)nc2-c2cccc(C#N)c2)cc(C)n1 [Example 6.102]
Study target: human Adenosine A2b receptor (Homo sapiens (Human))
Quantity name: Ki
Test result: 10.5

Compound: Cc1cc(-c2sc(NC(=O)N3CC(C(C)(C)O)C3)nc2-c2cccc(C#N)c2)cc(C)n1 [Example 4.33]
Study target: human Adenosine A2b receptor (Homo sapiens (Human))
Quantity name: Ki
Test result: 5.9

Compound: Cc1cc(-c2sc(NC(=O)N3CCN4C(=O)CN(C)C(=O)C4C3)nc2-c2cccc(C#N)c2)cc(C)n1 (stereo not drawn) [Example 6.39]
Study target: human Adenosine A2b receptor (Homo sapiens (Human))
Quantity name: Ki
Test result: 39.6

Compound: Cc1cc(-c2sc(NC(=O)N3CCC4(CC3)CNC(=O)N4)nc2-c2cccc(C#N)c2)cc(C)n1 [Example 6.11]
Study target: human Adenosine A2b receptor (Homo sapiens (Human))
Quantity name: Ki
Test result: 2.6

Let us move to another entry and its Ki.
Exercise: Bench note: what Ki did Cc1cc(-c2sc(NC(=O)N3CC(=O)N[C@@H](C)C3)nc2-c2cccc(C#N)c2)cc(C)n1 [Example 6.90] show?
Solution: 10.7

Measured values drawn from patent US20230293517A1 for this set.
